# Test system: CCRIS mutagenicity, Ames/micronucleus/aberration tests
# protocol.notes: CCRIS mutagenicity studies
# condition.summary: Test System: AMES SALMONELLA TYPHIMURIUM; Strain/Indicator: TA100; Metabolic Activation: NONE; Method: STANDARD PLATE
Active and inactive are the calls of the source. No rule for the calls is given here.
Choose the fitting class; nothing outside Y for active, N for inactive is accepted.

Look over these answered cases.
>  <compound>
O=C(c1ccccc1)[C@@H]1O[C@@H]1c1ccc(Br)cc1

>  <group>
N

$$$$
>  <compound>
CCOP(=O)(OCC)Oc1cc(-c2ccccc2)on1

>  <group>
N

$$$$

Recorded test call requested for "CC(C)=CCc1ccc(O)c2c(=O)c3c(O)c4c(cc3oc12)O[C@H]1OC=C[C@@]41O"
Y

Try "COC1=CC(=O)c2c(nc(C)c3c4c([nH]c23)CCCC4)C1=O" next.
N

Try O=[N+]([O-])c1c2c(c3ccc4cccc5ccc1c3c45)CCCC2O (centres undefined) next.
N

Try CO[C@]1(CC[C@@H](C)CO[C@@H]2O[C@H](CO)[C@@H](O)[C@H](O)[C@H]2O)O[C@H]2C[C@H]3[C@@H]4CC=C5C[C@@H](O[C@@H]6O[C@H](CO)[C@@H](O[C@@H]7O[C@@H](C)[C@H](O)[C@@H](O)[C@H]7O)[C@H](O)C6O[C@@H]6O[C@@H](C)[C@H](O)[C@@H](O)[C@H]6O)CC[C@]5(C)[C@H]4CC[C@]3(C)[C@H]2[C@@H]1C (some centres undefined) next.
N

Try "O[C@@H]1c2ccccc2-c2ccc3ccccc3c2[C@H]1O" next.
N

Try "C[C@]12C=CC(=O)C=C1CC[C@@H]1[C@@H]2C(=O)C[C@@]2(C)[C@H]1CC[C@]2(O)C(=O)CO" next.
N

Try "C[C@]12CC[C@H](OC(=O)Cc3ccc(N(CCCl)CCCl)cc3)C[C@@H]1CC[C@@H]1[C@@H]2CC[C@]2(C)NC(=O)CC[C@@H]12" next.
Y

Values compiled from PubChem BioAssay AID1259407.
